- Test system: KM-20L2
- test.summary: NCI tumour cell line growth inhibition, 48 h
Calls of active or inactive are those of the source. Cut-off read from the data, not from the text of the source: active = GI50 up to about 1.1 µM and inactive = higher.
measured.attribute: GI50

GI50 in this record for Brc1ccc(/C=N/C23CC4CC(CC(C4)C2)C3)cc1 : > 100 µM (inactive)

---

- Tested on: PC-3
- test.summary: NCI tumour cell line growth inhibition, 48 h
Calls of active or inactive are those of the source. No stated cut-off is given here; in the data, active = GI50 up to about 1.1 µM and inactive = higher.
API: response.call in YES (active), NO (inactive)

Answered examples (2):
INSERT INTO assay_data (molecule, category_label) VALUES
  ('COc1ccc(N(CN2C(=O)CCC2OC)C(C)=O)cc1 (stereo not given)', 'NO'),
  ('Oc1ccccc1/C=N/N1C(=S)N(c2ccccc2)C(=N\c2ccccc2)/C1=N/c1ccccc1', 'NO');

I'd appreciate the recorded outcome for Cc1c2cccc-2ccc2c1[nH]c1ccc(Br)cc12 from this test.
NO

Please state the recorded outcome for this molecule: O=C(c1cc2ccccc2[nH]1)N1C2CCC1CN(CCOC(c1ccc(F)cc1)c1ccc(F)cc1)CC2 (stereo not given)
NO

So what was the verdict on Cc1cccc(Nc2cn(CCOc3ccccc3)c(=O)[nH]c2=O)c1 in this test?
NO

For CC(NC(=O)C(Cc1ccc(OC(=O)c2ccccc2)cc1)NC(=O)OC(C)(C)C)C(=O)NCC(=O)NC(Cc1ccccc1)C(=O)NN (stereo not given) , what call appears in the results of this test?
NO

Please let me know the test result on file for CC(=O)NC1C(OCc2ccccc2)OC(CO)C(O)C1OCC(=O)N[C@@H](C)C(=O)N[C@H](CCC(=O)NCCCNc1c2ccccc2nc2cccc([N+](=O)[O-])c12)C(N)=O (stereo not given in full) .
YES

Which outcome did this test record for the molecule COc1ccc2c(cnc3c4cc(OC)c(OC)cc4ccc23)c1 ?
NO

Assay outcome for Oc1c(Br)cc(Br)cc1CN(Cc1cc(Br)cc(Br)c1O)C1CCCCC1 : what was it?
NO

How was OCCN(CO)CO classified in this test?
NO
